Endpoint: GI50. System: U251 CNS. Items follow.

1. CCNCCNc1cc(-c2ccc(F)cc2)c(C#N)c2nc3ccccc3n12	2410 nM

Input line: Record request: GI50 value, item COc1ccc(/C=C2\N=C3SC=C(N)N3C2=O)cc1
Output line: 1320 nM

Input line: Record request: GI50 value, item COc1ccc2c3c(c(OCCCN(C)C)nc2c1)-c1ccc(Cl)cc1C3=O
Output line: 4740 nM

Input line: Record request: GI50 value, item COc1ccc2c(c1)OC13Oc4cc(OC)ccc4C=C1CCCC3=C2
Output line: > 100000 nM

* * *

Below: a set of entries, each annotated with reported TGI.
- Test system: NCI-H226 lung
- method.notes: NCI tumour cell line growth inhibition, 48 h

Completed entries (count: 2):
1. C/C(=N\Nc1ccc([N+](=O)[O-])cc1)C(=O)N(C)Nc1ccccc1	> 100 µM
2. CC1(C)CCc2c(c(N=Nc3ccccc3)c3ccccc3c2O)O1	> 100 µM

Kindly consider the entry below.
Input line: Record request: TGI value, item CCN(CC)CCNc1ccc(C)c2sc3ccc(O)cc3c(=O)c12
Output line: 2 µM

* * *

- System: DU-145 prostate
- method.notes: NCI tumour cell line growth inhibition, 48 h; in the data active = GI50 below about 0.43 µM; inactive = the rest
Pick one: active, inactive

Worked set:
1. C[C@@H]1CC[C@@]2(OC1)O[C@H]1C[C@H]3[C@@H]4CC=C5C[C@@H](O[C@@H]6O[C@H](CO)[C@@H](O[C@@H]7O[C@@H](CO)[C@H](O)[C@H]7O)[C@H](O)[C@H]6O[C@@H]6O[C@@H](C)[C@H](O)[C@@H](O)[C@H]6O)CC[C@]5(C)[C@H]4CC[C@]3(C)[C@H]1[C@@H]2C	inactive
2. COc1ccc(/C=C2\COc3ccc(-c4ccccc4)cc3C2=O)cc1O	inactive
3. O=Nc1c(O)ccc2ccccc12	inactive
4. O=C(/C=C/c1ccco1)Nc1ncc(Cc2ccc(F)cc2)s1	active
5. CCSC1=CC(=O)c2ccccc2C1=O	inactive
6. COc1ccc(/C=C2\N=C3SC=C(N)N3C2=O)cc1	inactive
7. C[Se]C(=O)CC1=C2C=C(F)C=CC2/C(=C\c2ccc(S(C)=O)cc2)C1C (stereo not drawn)	active
8. Fc1ccc(-c2ncn(C3CCNCC3)c2-c2ccnc(Oc3cccc(F)c3)n2)cc1	inactive

Input line: Entry Oc1ccccc1-n1c(-c2ccccc2)ccc1-c1ccccc1 : call = ?
Output line: inactive

Input line: Entry FC(F)(F)c1ccc(-c2cnc(Br)nc2NC2CCCCCC2)cc1 : call = ?
Output line: inactive

Input line: Entry O=C(/C=C/c1cccc(Cl)c1)c1ccc(Cl)cc1Cl : call = ?
Output line: inactive

Input line: Entry CC#CC(=O)N1CCC[C@H]1c1nc(-c2ccc(C(=O)Nc3ccccn3)cc2)c2c(N)nccn12 : call = ?
Output line: inactive

Input line: Entry CN(C)c1ccc(/C=C/c2ccnc3ccccc23)cc1 : call = ?
Output line: inactive

* * *

Below: a set of entries, each annotated with reported TGI.
- Tested on: OVCAR-8 ovarian
- method.notes: NCI tumour cell line growth inhibition, 48 h

Completed entries (count: 6):
1. Cc1n[nH]c(=O)n1N=C(c1ccccc1)c1ccccc1	> 100 µM
2. O=C(/C=C\c1ccnc2ccccc12)c1ccc([N+](=O)[O-])cc1	> 100 µM
3. C=C(C)C1/C=C(/C(C)C)CC[C@]2(C)O[C@@H]2CC[C@H](C)CC1=O (stereo partly drawn)	> 100 µM
4. CC1(C)CCc2c(c(N=Nc3ccccc3)c3ccccc3c2O)O1	> 100 µM
5. N#Cc1c(NC(=S)NCc2ccccc2)sc2c1CCN(N1CCc3c(sc(NC(=S)NCc4ccccc4)c3C#N)C1)C2	> 100 µM
6. CN1C[C@@H]2CCCN2P1Oc1cccc2cccnc12 (stereo partly drawn)	> 100 µM

Input line: Record request: TGI value, item O=C(/C=C/c1cccc(Cl)c1)c1ccc(Cl)cc1Cl
Output line: 36.9 µM

Input line: Record request: TGI value, item CC1OC(O)C(O)C(O)C1O (stereo not drawn)
Output line: > 100 µM

Input line: Record request: TGI value, item CC(C)[Si]1(C(C)C)OCC2OC(n3ccc(=O)[nH]c3=O)C(O)(CO)C2O[Si](C(C)C)(C(C)C)O1 (stereo not drawn)
Output line: 29.5 µM

Input line: Record request: TGI value, item O=C(NNS(=O)(=O)c1cc(C(F)(F)F)cc(C(F)(F)F)c1)c1cnn(-c2ccc(Cl)cc2)c1C(F)(F)F
Output line: 51.7 µM

Input line: Record request: TGI value, item CCS/C(Nc1ccccc1)=C(\C#N)C(=O)Nc1ccc(OC)cc1
Output line: > 100 µM

Input line: Record request: TGI value, item CCSC1=CC(=O)c2ccccc2C1=O
Output line: 3.8 µM

Input line: Record request: TGI value, item Cc1ccc(NC(=O)C(=O)Cc2nc3ccccc3o2)c(C)c1
Output line: > 100 µM

* * *

- Test system: M14 melanoma
- method.notes: NCI tumour cell line growth inhibition, 48 h
parameter.measured: TGI

1. CCNCC(O)c1ccc(N)c([N+](=O)[O-])c1 (centres undefined)	> 100 µM
2. C[N+]1(C)CN(c2ccccc2)C2(CCN(CCCC(=O)c3cccs3)CC2)C1=O	51.9 µM
3. S=C(Nc1ccc(Br)cn1)NC12CC3CC(CC(C3)C1)C2	> 100 µM

Kindly consider the entry below.
Input line: Record request: TGI value, item C[Se]C(=O)CC1=C2C=C(F)C=CC2/C(=C\c2ccc(S(C)=O)cc2)C1C (centres undefined)
Output line: 1.52 µM

* * *

- System: UACC-257 melanoma
- method.notes: NCI tumour cell line growth inhibition, 48 h
Below: a set of entries, each annotated with reported TGI.

1. COc1ccc2c(c1)CC[C@@H]1C2CC[C@]2(C)C(=O)NC(=O)CC12 (stereo not given in full)	> 100 µM
2. Cn1ccnc1C(=O)/C=C/c1ccc(C(=O)Nc2nc3ccccc3[nH]2)cc1	> 25 µM
3. O=C(/C=C\c1ccnc2ccccc12)c1ccc([N+](=O)[O-])cc1	> 60.7 µM
4. O=C1C(c2ccccc2)=C(c2ccccc2)C(c2ccc(CCCCCCc3ccc(C4=C(c5ccccc5)C(=O)C(c5ccccc5)=C4c4ccccc4)cc3)cc2)=C1c1ccccc1	> 100 µM

Kindly consider the entry below.
Input line: GET /values?readout=TGI&system=UACC-257 melanoma&item= O=C1/C(=C/c2cccs2)CCC/C1=C\c1cccs1
Output line: > 100 µM

* * *

- Tested on: NCI-H226 lung
- method.notes: NCI tumour cell line growth inhibition, 48 h
parameter.measured: GI50

Completed entries (count: 5):
1) O=Nc1c(O)ccc2ccccc12	15600 nM
2) C#Cc1ccc(NC(=O)c2ccc(/C=C/C(=O)c3nccn3C)cc2)cc1	605 nM
3) CC/C=C\CCC/C=C1/C(=O)C=C[C@@H]1C/C=C\CCCC(=O)O	4350 nM
4) Cn1cnc([N+](=O)[O-])c1Sc1ncnc2c1ncn2C1OC(CO)C(O)C1O (stereo not given)	8040 nM
5) CN(Cc1cnc2nc(N)nc(N)c2n1)c1ccc(C(=O)NC(CCC(=O)O)C(=O)O)cc1 (stereo not given)	505 nM

Input line: Record request: GI50 value, item CC[C@H](C)[C@H](NC(=O)C12C3C4C1C1C2C3C41NC(C)=O)C(=O)N(C)[C@H](C[C@@H](OC(C)=O)c1nc(C(=O)N[C@@H](Cc2ccccc2)C[C@H](C)C(=O)OC)cs1)C(C)C (stereo not given in full)
Output line: > 9710 nM

Input line: Record request: GI50 value, item C[C@@H]1CC[C@@]2(OC1)O[C@H]1C[C@H]3[C@@H]4CC=C5C[C@@H](O[C@@H]6O[C@H](CO)[C@@H](O[C@@H]7O[C@@H](CO)[C@H](O)[C@H]7O)[C@H](O)[C@H]6O[C@@H]6O[C@@H](C)[C@H](O)[C@@H](O)[C@H]6O)CC[C@]5(C)[C@H]4CC[C@]3(C)[C@H]1[C@@H]2C
Output line: 1330 nM

Input line: Record request: GI50 value, item C[C@H]1[C@@H](OCC(CO[C@H]2O[C@@H]3O[C@@]4(C)CC[C@H]5[C@H](C)CC[C@@H]([C@H]2C)[C@@]35OO4)=NOCC(=O)O)OC2O[C@@]3(C)CC[C@H]4[C@H](C)CC[C@@H]1[C@@]24OO3 (stereo not given in full)
Output line: 37.5 nM

Input line: Record request: GI50 value, item CC(=O)N1CC(F)(F)c2c(Sc3ncc(N4CCC5(CC4)COC[C@H]5N)nc3N)cccc21
Output line: 20900 nM

Input line: Record request: GI50 value, item COC(=O)CCC1=C(C)c2cc3[n-]c(cc4nc(cc5[n-]c(cc1n2)c(CCC(=O)OC)c5C)C=C4C)cc3C.[Cd+2]
Output line: 1520 nM

Sourced from PubChem BioAssay (NCI)
